- Tested on: rabbit skeletal myofibrils (approximately 90% fast fibers)
- experimental-details: Activation of fast skeletal myofibrils (PUMA coupled-enzyme ATPase assay)
- Format: biochemical
- reported-conditions: AC1.4 = concentration at which the compound increased the enzymatic activity by 40%; myofibril suspension at calcium level pCa25; PM12 buffer pH 6.8
readout: Mean AC1.4

Use the examples below as a reference point.
molecule: CC(C)(Nc1ncc(-c2cc(C(N)=O)ccc2F)nn1)c1ccc(F)cc1
readout: Mean AC1.4
assay-result: A (A=<1 uM)
//
molecule: CC(C)(CNc1ccc(C#N)cn1)c1ccc(F)cc1
readout: Mean AC1.4
assay-result: C (C=10-20 uM)
//
molecule: Nc1n[nH]c2ccc(-c3cnc(NCC4(c5ncccc5F)CCC4)nn3)cc12
readout: Mean AC1.4
assay-result: B (B=1-10 uM)
//
molecule: CC(C)(Nc1ncc(-c2ncc(CC(N)=O)s2)nn1)c1ncccc1F
readout: Mean AC1.4
assay-result: D (D=>20 uM)
//
molecule: CC(Nc1ncc(-c2cc(C(N)=O)ccc2F)nn1)c1ncccc1F (stereo not drawn)
readout: Mean AC1.4
assay-result: C (C=10-20 uM)
//
molecule: CNC(=O)c1cccc(-c2cnc(NC[C@]3(c4ncccc4Cl)C[C@H](F)C3)nn2)c1
readout: Mean AC1.4
assay-result: B (B=1-10 uM)

Briefly, Mean AC1.4 measured for CC(C)(Nc1ncc(-c2ccc(F)c(C(=O)O)c2)nn1)c1ncccc1F : D (D=>20 uM)

Value of measured Mean AC1.4 for the entry NC(=O)c1ccc(F)c(-c2cnc(NCC3(c4ncccc4Cl)CCC3)nn2)c1 : A (A=<1 uM)

The measured Mean AC1.4 associated with CC(=O)NCc1cnc(-c2cnc(NC[C@]3(c4ncccc4F)C[C@H](F)C3)nn2)s1 reads B (B=1-10 uM)

Given item c1ccc(-c2ccnc(NC3(c4ccccc4)CCC3)c2)cc1 , the value recorded as its Mean AC1.4 is C (C=10-20 uM)

Given item NC(=O)c1ccc(F)c(-c2cnc(NC3(c4ncccc4F)CCC3)nn2)c1 , the value recorded as its Mean AC1.4 is B (B=1-10 uM)

GET /value?item= NC(=O)c1ccc(F)c(-c2cnc(NCc3cccc(OC(F)F)n3)nn2)c1 &field=Mean AC1.4 returns D (D=>20 uM)

What the record says about CNC(=O)c1ccc(F)c(-c2cnc(NCC3(c4ncccc4F)CCC3)nn2)c1 : Mean AC1.4 is B (B=1-10 uM)

So for CC(C)(Nc1ncc(-c2cc(C(N)=O)ccc2F)nn1)c1ncccc1Cl , the logged Mean AC1.4 turned out to be B (B=1-10 uM)

Data point: C[C@@H](CNc1ccc(-c2cccc(C(N)=O)c2)cn1)c1ccc(F)cc1 ; Mean AC1.4 = B (B=1-10 uM)

Quick note, Mean AC1.4 for CC(C)=Cc1cccc(NCC(C)(C)c2ccc(F)cc2)n1 landed at D (D=>20 uM)

Entry O=C(O)c1ccc(F)c(-c2cnc(NCC3(c4ncccc4F)CCC3)nn2)c1 , Mean AC1.4 reported as B (B=1-10 uM)

----------
- Test system: rabbit skeletal myofibrils (approximately 90% fast fibers)
- experimental-details: Activation of fast skeletal myofibrils (PUMA coupled-enzyme ATPase assay)
- Format: biochemical
- reported-conditions: AC1.4 = concentration at which the compound increased the enzymatic activity by 40%; myofibril suspension at calcium level pCa25; PM12 buffer pH 6.8
readout: Mean AC1.4

Worked examples follow.
smiles-text: NC(=O)c1cccc(-c2ccc(NC(=O)Cc3ccc(F)cc3)nc2)c1
target-or-test-system: rabbit skeletal myofibrils (approximately 90% fast fibers)
readout: Mean AC1.4
assay-result: D (D=>20 uM)
--
smiles-text: CC(C)(Nc1ncc(-c2cccc(C(N)=O)c2)nn1)c1ncccc1Cl
target-or-test-system: rabbit skeletal myofibrils (approximately 90% fast fibers)
readout: Mean AC1.4
assay-result: B (B=1-10 uM)
--
smiles-text: NC(=O)c1cccc(-c2cnc(NC[C@]3(c4ncccc4Cl)C[C@H](F)C3)nn2)c1
target-or-test-system: rabbit skeletal myofibrils (approximately 90% fast fibers)
readout: Mean AC1.4
assay-result: A (A=<1 uM)
--
smiles-text: CC(C)(CNc1ccc2cc(C(N)=O)ccc2n1)c1ccc(F)cc1
target-or-test-system: rabbit skeletal myofibrils (approximately 90% fast fibers)
readout: Mean AC1.4
assay-result: B (B=1-10 uM)

For record CC(C)(Nc1ncc(-c2cc(C(N)=O)ccc2F)nn1)c1ncccc1F the listed Mean AC1.4 is B (B=1-10 uM)

Record CC(C)(Nc1ncc(-c2cc(NS(C)(=O)=O)ccc2F)nn1)c1ncccc1F , field Mean AC1.4: C (C=10-20 uM)

The value of Mean AC1.4 measured for the compound COC(=O)c1ccc(F)c(-c2cnc(NCC(C)(C)c3ncccc3Cl)nn2)c1 turned out to be D (D=>20 uM)

Query COC(=O)c1ccc(-c2cnc(NC(C)(C)c3ncccc3F)nn2)c(F)c1 yields Mean AC1.4 of D (D=>20 uM)

Documented Mean AC1.4 of CC(=O)NCc1ccc(F)c(-c2cnc(NC(C)(C)c3ncccc3F)nn2)c1 : D (D=>20 uM)

Entry CC(C)(Nc1ncc(-c2ccc(C(N)=O)cc2F)nn1)c1ncccc1F , Mean AC1.4 reported as D (D=>20 uM)

Entry NC(=O)c1cccc(-c2cnc(NCC3(c4ccccn4)CCC3)nn2)c1 ; Mean AC1.4 = B (B=1-10 uM)

Record summary for NC(=O)c1ccc(O)c(-c2cnc(NC[C@]3(c4ncccc4F)C[C@H](F)C3)nn2)c1 : reported Mean AC1.4 = A (A=<1 uM)

The reported Mean AC1.4 of the compound Cc1nc(C(C)(C)Nc2ncc(-c3cc(C(N)=O)ccc3F)nn2)ccc1F was B (B=1-10 uM)

For record NC(=O)c1cccc(-c2cnc(NC[C@]3(c4ncccc4F)C[C@H](F)C3)c(F)c2)c1 the listed Mean AC1.4 is B (B=1-10 uM)

# Mean AC1.4 of CC(C)(Nc1ncc(-c2ncc(C(N)=O)s2)nn1)c1cccc(OC(F)F)n1 = B (B=1-10 uM)

Consider CC(C)(CNc1ncc(-c2cccc(C(N)=O)c2)nn1)c1ccc(F)cc1 . Its measured Mean AC1.4 is B (B=1-10 uM)

The compound listed as CC(C)(Nc1ncc(-c2nccs2)nn1)c1ncccc1F has a reported Mean AC1.4 of D (D=>20 uM)

Reported Mean AC1.4 of Cc1ccc(F)c(C(C)(C)Nc2ncc(-c3cc(C(N)=O)ccc3F)nn2)n1 : B (B=1-10 uM)

CC(C)(CNc1cnc(-c2cccc(C(N)=O)c2)nn1)c1ccc(F)cc1 has a reported Mean AC1.4 of B (B=1-10 uM)

Item: CNC(=O)c1ccc(F)c(-c2cnc(NCC3(c4ncccc4Cl)CC(F)(F)C3)nn2)c1 | Mean AC1.4: B (B=1-10 uM)

----------
- System: rabbit skeletal myofibrils (approximately 90% fast fibers)
- experimental-details: Activation of fast skeletal myofibrils (PUMA coupled-enzyme ATPase assay)
- Type: biochemical
- reported-conditions: AC1.4 = concentration at which the compound increased the enzymatic activity by 40%; myofibril suspension at calcium level pCa25; PM12 buffer pH 6.8
readout: Mean AC1.4

smiles-text: CC(C)(Nc1ncc(-c2cc(C#N)ccc2F)nn1)c1ncccc1C(F)F
assay-result: D (D=>20 uM)

smiles-text: CC(C)(Nc1ncc(-c2cc(C(N)=O)ccc2F)nn1)c1cccc(C(F)F)n1
assay-result: B (B=1-10 uM)

smiles-text: CC(C)(Nc1ncc(-c2ccc3[nH][nH]c(=O)c3c2)nn1)c1ncccc1F
assay-result: B (B=1-10 uM)

smiles-text: CC(C)(Nc1ncc(-c2cc(CN)ccc2F)nn1)c1ncccc1F
assay-result: D (D=>20 uM)
